assay-overview: physchem
condition-info: water, thermodynamic from solid
result-type: solubility (µg/mL)
Report the figure in µg/mL without appending any unit label.

Requested field: solubility. Item: CN(C)C(=O)N[C@H]1CC[C@H](CCN2CCN(c3cccc(Cl)c3Cl)CC2)CC1 [cariprazine free base, cariprazine]
6
